Reported IC50, Lysine-specific demethylase 6B (Homo sapiens, UniProt O15054).

{"columns": ["COMPOUND", "UNITS", "IC50"],
 "data": [
  ["N[C@@H]1C[C@H]1c1ccc(NC(=O)c2ccnc(-c3cc(C(=O)O)ccn3)c2)cc1 (relative stereo)", "µM", 2.7],
  ["Cl.N[C@@H]1C[C@H]1c1ccc(NC(=O)c2ccc(O)c3ncccc23)cc1 (relative stereo)", "µM", 27]
]}

* * *

Quick list: IC50 per entry.
Target protein (sequence): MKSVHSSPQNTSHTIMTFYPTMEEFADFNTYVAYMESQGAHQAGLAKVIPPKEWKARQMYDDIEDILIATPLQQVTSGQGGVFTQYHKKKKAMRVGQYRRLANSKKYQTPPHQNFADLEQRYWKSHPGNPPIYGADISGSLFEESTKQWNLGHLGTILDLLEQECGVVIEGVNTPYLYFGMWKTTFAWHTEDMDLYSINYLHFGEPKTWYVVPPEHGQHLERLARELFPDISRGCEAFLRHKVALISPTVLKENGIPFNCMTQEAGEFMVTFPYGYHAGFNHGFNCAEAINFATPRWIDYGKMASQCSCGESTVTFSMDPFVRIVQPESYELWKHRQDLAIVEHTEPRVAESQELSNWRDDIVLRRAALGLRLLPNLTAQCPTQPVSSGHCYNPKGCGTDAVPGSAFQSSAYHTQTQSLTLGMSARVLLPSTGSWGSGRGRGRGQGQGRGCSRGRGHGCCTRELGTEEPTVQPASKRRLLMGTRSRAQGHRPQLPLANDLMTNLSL

{"columns": ["COMPOUND", "IC50 (µM)"],
 "data": [
  ["Cl.N[C@H]1C[C@@H]1c1ccc(NC(=O)CCCCCNC(=O)c2ccc(O)c3ncccc23)cc1 (relative stereo)", 5.1],
  ["N[C@@H]1C[C@H]1c1ccc(NC(=O)c2ccnc(-c3cc(C(=O)O)ccn3)c2)cc1 (relative stereo)", 0.42],
  ["N[C@H]1C[C@@H]1c1ccc(NC(=O)CCCNC(=O)c2ccc(O)c3ncccc23)cc1 (relative stereo)", 5.5],
  ["Cl.N[C@@H]1C[C@H]1c1ccc(NC(=O)c2ccc(O)c3ncccc23)cc1 (relative stereo)", 3.9]
]}

* * *

Reported IC50, Lysine-specific demethylase 2A (Homo sapiens).

{"columns": ["COMPOUND", "TARGET_ENTITY", "UNITS", "IC50"],
 "data": [
  ["N[C@H]1C[C@@H]1c1ccc(NC(=O)CCCNC(=O)c2ccc(O)c3ncccc23)cc1 (relative stereo)", "Lysine-specific demethylase 2A (Homo sapiens)", "µM", 12],
  ["N[C@@H]1C[C@H]1c1ccc(NC(=O)c2ccnc(-c3cc(C(=O)O)ccn3)c2)cc1 (relative stereo)", "Lysine-specific demethylase 2A (Homo sapiens)", "µM", 0.22],
  ["COC(=O)c1ccnc(-c2cc(C(=O)Nc3ccc([C@@H]4C[C@H]4N)cc3)ccn2)c1.Cl (relative stereo)", "Lysine-specific demethylase 2A (Homo sapiens)", "µM", 12.2]
]}

* * *

Reported IC50, Lysine-specific demethylase 3A (Homo sapiens, UniProt Q9Y4C1).
ASSAY_METRIC: IC50 (µM)

{"columns": ["COMPOUND", "ASSAY_METRIC", "REPORTED_VALUE"],
 "data": [
  ["Cl.N[C@H]1C[C@@H]1c1ccc(NC(=O)CCCCCNC(=O)c2ccc(O)c3ncccc23)cc1 (relative stereo)", "IC50", 9.1],
  ["N[C@H]1C[C@@H]1c1ccc(NC(=O)CCCCNC(=O)c2ccc(O)c3ncccc23)cc1 (relative stereo)", "IC50", 9.7],
  ["N[C@@H]1C[C@H]1c1ccc(NC(=O)c2ccnc(-c3cc(C(=O)O)ccn3)c2)cc1 (relative stereo)", "IC50", 0.14],
  ["Cl.N[C@@H]1C[C@H]1c1ccc(NC(=O)c2ccc(O)c3ncccc23)cc1 (relative stereo)", "IC50", 31]
]}
